B1: PTPRD (parent)
chain: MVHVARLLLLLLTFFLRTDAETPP

variants of: B1; assay: protein stability index of a GFP-peptide fusion (GPS, HEK-293T) (PSI 1-6); higher = more stable; settings: c terminus: a fixed tail appended;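 further: lentivirally expressed fusions sorted by FACS into six bins by GFP to DsRed ratio, PSI derived from sequencing read proportions per bin multiplied by bin number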
propertyLabel: protein stability index
Please respond with just the number, no unit label.

T18S ... 2.48
L9F ... 2.89
D19L ... 2.71

For the variant "P24F" , what protein stability index is on record?
1.99

For the variant "L8R" , what protein stability index is on record?
2.45

For the variant "P23E" , what protein stability index is on record?
2.31
